# method: melting temperature; UV melt of duplexes
# stated.conditions: sodium 0.22 M; strand 2 µM
measured.metric: Tm (°C)
Please give a number only; it is taken to be in °C.

{"substance": "CCCTGCACTTTAACTGAATTGTTTA+TAAACAATTCAGTTAAAGTGCAGGG (((((((((((((((((((((((((+)))))))))))))))))))))))))", "unit.descriptor": "°C", "test.value": 65.6}

q: Tell me the measured Tm of TCAGTAGGCGTGACGCAGAGCTGGCGATGG+CCATCGCCAGCTCTGCGTCACGCCTACTGA ((((((((((((((((((((((((((((((+)))))))))))))))))))))))))))))) , please.
a: 79.3

q: // lookup Tm for CAGTGGGCTCCTGGGCGTGCTGGTC+GACCAGCACGCCCAGGAGCCCACTG (((((((((((((((((((((((((+)))))))))))))))))))))))))
a: 79.2

----------
# method: melting temperature; melt of duplexes
# stated.conditions: sodium 0.0675 M; strand 1 µM
// reported Tm for each item listed
Give the number; °C is assumed, so skip it.

Please review the following examples before continuing.
{"substance": "CGACGTGCTTTATGTGCTG+CAGCACATTGTGCACGTCG ((((((((...((((((((+))))))))...))))))))", "Tm / °C": 45.1}
{"substance": "CGACGTGCAGAATGTGCTG+CAGCACATTCGGCACGTCG ((((((((.((((((((((+)))))))))).))))))))", "Tm / °C": 59.9}
{"substance": "CGACGTGCCAGATGTGCTG+CAGCACATGATGCACGTCG ((((((((...((((((((+))))))))...))))))))", "Tm / °C": 49.4}

q: So what's the measured Tm for this one? CGACGTGCCTAATGTGCTG+CAGCACATTTCGCACGTCG ((((((((..(((((((((+)))))))))..))))))))
a: 50.5

----------
# method: melting temperature; melt of duplexes
# stated.conditions: sodium 0.0675 M; strand 1 µM
Tag: yes if measured Tm is not below 50 °C, no if it is.

{"substance": "CGACGTGCTTTATGTGCTG+CAGCACATGACGCACGTCG ((((((((.(.((((((((+)))))))).).))))))))", "answer.label": "no"}
{"substance": "CGACGTGCTTCATGTGCTG+CAGCACATGCAGCACGTCG (((((((((.(((((((((+))))))))).)))))))))", "answer.label": "yes"}
{"substance": "CGACGTGCCACATGTGCTG+CAGCACATACGGCACGTCG (((((((((..((((((((+))))))))..)))))))))", "answer.label": "yes"}

q: Could you tell me if the measured Tm of CGACGTGCCGCATGTGCTG+CAGCACATGGAGCACGTCG ((((((((..(((((((((+)))))))))..)))))))) reaches 50 °C or more?
a: yes

q: Confirm if Tm reported for the substance CGACGTGCGGAATGTGCTG+CAGCACATCGTGCACGTCG ((((((((...((((((((+))))))))...)))))))) is 50 °C or above.
a: no

q: In plain terms: is recorded Tm at least 50 °C for CGACGTGCGCGATGTGCTG+CAGCACATTTCGCACGTCG (((((((((..((((((((+))))))))..))))))))) ?
a: yes
